assay: total protein half-life in vivo (active degradation + dilution); higher = more stable protein; details: wild type E. coli NCM3722; growth: N-lim chemostat; doubling time 6 h
total protein half-life in vivo by entry:
Respond with the bare value in h.

[
  {
    "Sequence": "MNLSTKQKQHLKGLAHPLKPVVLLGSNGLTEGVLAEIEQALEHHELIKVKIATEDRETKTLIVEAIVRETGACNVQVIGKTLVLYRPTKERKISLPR [P0AGK4]",
    "Measured Attribute": "total protein half-life in vivo",
    "Val": 4.83
  }
]

Next item in the queue.
Entry under review: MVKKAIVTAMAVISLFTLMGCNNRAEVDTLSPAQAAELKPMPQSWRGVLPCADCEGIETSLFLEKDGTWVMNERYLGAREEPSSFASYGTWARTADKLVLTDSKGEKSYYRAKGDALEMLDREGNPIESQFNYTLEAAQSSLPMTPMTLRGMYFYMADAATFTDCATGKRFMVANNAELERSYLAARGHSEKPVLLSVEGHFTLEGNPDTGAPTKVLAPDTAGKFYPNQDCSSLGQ . Reported total protein half-life in vivo?
6.08

###

total protein half-life in vivo by entry:
assay: total protein half-life in vivo (active degradation + dilution); higher = more stable protein; conditions: wild type E. coli NCM3722; growth: N-lim chemostat; doubling time 12 h
Respond with the bare value in h.

// solved cases for total protein half-life in vivo follow
[
  {
    "Sequence": "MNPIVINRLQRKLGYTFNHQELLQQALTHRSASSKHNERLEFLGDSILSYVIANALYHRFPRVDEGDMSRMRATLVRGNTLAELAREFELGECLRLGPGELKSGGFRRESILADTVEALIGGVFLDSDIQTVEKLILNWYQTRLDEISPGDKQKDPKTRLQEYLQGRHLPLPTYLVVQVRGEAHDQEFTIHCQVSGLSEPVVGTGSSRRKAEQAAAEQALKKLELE [P0A7Y0]",
    "Output Unit": "h",
    "Val": 7.78
  },
  {
    "Sequence": "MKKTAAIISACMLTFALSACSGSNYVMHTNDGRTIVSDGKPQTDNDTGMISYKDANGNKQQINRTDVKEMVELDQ",
    "Output Unit": "h",
    "Val": 11.3
  },
  {
    "Sequence": "MTGQSSSQAATPIQWWKPALFFLVVIAGLWYVKWEPYYGKAFTAAETHSIGKSILAQADANPWQAALDYAMIYFLAVWKAAVLGVILGSLIQVLIPRDWLLRTLGQSRFRGTLLGTLFSLPGMMCTCCAAPVAAGMRRQQVSMGGALAFWMGNPVLNPATLVFMGFVLGWGFAAIRLVAGLVMVLLIATLVQKWVRETPQTQAPVEIDIPEAQGGFFSRWGRALWTLFWSTIPVYILAVLVLGAARVWLFPHADGAVDNSLMWVVAMAVAGCLFVIPTAAEIPIVQTMMLAGMGTAPALALLMTLPAVSLPSLIMLRKAFPAKALWLTGAMVAVSGVIVGGLALLF",
    "Output Unit": "h",
    "Val": 5.72
  },
  {
    "Sequence": "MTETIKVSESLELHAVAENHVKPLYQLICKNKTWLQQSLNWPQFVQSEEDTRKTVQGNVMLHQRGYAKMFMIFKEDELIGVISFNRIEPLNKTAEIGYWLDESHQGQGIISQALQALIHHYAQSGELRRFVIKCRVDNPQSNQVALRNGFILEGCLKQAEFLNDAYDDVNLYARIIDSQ",
    "Output Unit": "h",
    "Val": 6.48
  },
  {
    "Sequence": "MSWISPELIEILLTILKAVVILLVVVTCGAFMSFGERRLLGLFQNRYGPNRVGWGGSLQLVADMIKMFFKEDWIPKFSDRVIFTLAPMIAFTSLLLAFAIVPVSPGWVVADLNIGILFFLMMAGLAVYAVLFAGWSSNNKYSLLGAMRASAQTLSYEVFLGLSLMGVVAQAGSFNMTDIVNSQAHVWNVIPQFFGFITFAIAGVAVCHRHPFDQPEAEQELADGYHIEYSGMKFGLFFVGEYIGIVTISALMVTLFFGGWQGPLLPPFIWFALKTAFFMMMFILIRASLPRPRYDQVMSFGWKICLPLTLINLLVTAAVILWQAQ [P0AFD4]",
    "Output Unit": "h",
    "Val": 9.26
  },
  {
    "Sequence": "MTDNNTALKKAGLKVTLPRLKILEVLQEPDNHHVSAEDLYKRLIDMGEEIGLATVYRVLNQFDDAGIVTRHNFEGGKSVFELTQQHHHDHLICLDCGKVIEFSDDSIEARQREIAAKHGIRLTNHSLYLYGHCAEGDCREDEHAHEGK [P0A9A9]",
    "Output Unit": "h",
    "Val": 11.3
  }
]

Entry under review: MSDTTELVDLAVIFPDLEIELKYACADNITGKAIYQQARCLLHKDAITALAKSISIAQLSGLQLVIYDAYRPQQAQAMLWQACPDPQYVVDVTVGSNHSRGTAIDLTLRDEHGNILDMGAGFDEMHERSHAYHPSVPPAAQRNRLLLNAIMTGGGFVGISSEWWHFELPQAASYPLLADQFSCFISPGTQHVS . Reported total protein half-life in vivo?
4.71
